These measurements were taken from patent US11224601B1.

- target_entity: recombinant human Mcl-1 (Mcl-1/Bim interaction) (Homo sapiens (Human))
- measurement_protocol: biochemical
- Format: binding
- condition_label: cell free Mcl-1:Bim TR-FRET; read-out: Mcl-1 HTRF IC50
For each entry below, report its pIC50 value.
Just the number, please; pIC50 means minus log10 of the concentration in mol/L.

input: Item CCO[C@]1(CN2CCN(C(C)C)[C@H](C)C2)/C=C/C[C@H](C)[C@@H](C)S(=O)(=O)NC(=O)c2ccc3c(c2)N(C[C@@H]2CC[C@H]21)C[C@@]1(CCCc2cc(Cl)ccc21)CO3 has what recorded pIC50?
output: 10.11

input: Please give the measured pIC50 for this compound: CCO[C@]1(CN2CCN3CCOC[C@@H]3C2)/C=C/C[C@H](C)[C@@H](CCOC)S(=O)(=O)NC(=O)c2ccc3c(c2)N(C[C@@H]2CC[C@H]21)C[C@@]1(CCCc2cc(Cl)ccc21)CO3
output: 10.03

input: Need pIC50, item CO[C@@]1(CN2CCN3CCOC[C@@H]3C2)/C=C/C[C@H](C)[C@@H](C)S(=O)(=O)NC(=O)c2ccc3c(n2)N(C[C@@H]2CC[C@H]21)C[C@@]1(CCCc2cc(Cl)ccc21)CO3
output: 10.22

input: Can you look up the measured pIC50 of C[C@@H]1[C@@H](C)C/C=C/C(O)(CN2CCN3CCCC[C@@H]3C2)[C@@H]2CC[C@H]2CN2C[C@@]3(CCCc4cc(Cl)ccc43)COc3ccc(cc32)C(=O)NS1(=O)=O (single isomer, unassigned) [Example 243] for me?
output: 10.11

input: Item under review: CO[C@]1(CN2CCN3CCN(C(C)=O)C[C@@H]3C2)/C=C/C[C@H](C)[C@@H](C)S(=O)(=O)NC(=O)c2ccc3c(c2)N(C[C@@H]2CC[C@H]21)C[C@@]1(CCCc2cc(Cl)ccc21)CO3 (single isomer, unassigned) [Example 229] . Reported pIC50?
output: 9.21

input: GET /values?readout=pIC50&item= CCO[C@]1(CN2CCN(C(C)(C)C)CC2)/C=C/C[C@H](C)[C@@H](C)S(=O)(=O)NC(=O)c2ccc3c(c2)N(C[C@@H]2CC[C@H]21)C[C@@]1(CCCc2cc(Cl)ccc21)CO3
output: 10.10

input: What pIC50 value was documented for this compound, CO[C@]1(CN2CCN3CCCC[C@@H]3C2)/C=C/C[C@H](C)[C@@H](CCO)S(=O)(=O)NC(=O)c2ccc3c(c2)N(C[C@@H]2CC[C@H]21)C[C@@]1(CCCc2cc(Cl)ccc21)CO3 ?
output: 10.18

input: What value of pIC50 has been reported for the following compound? CCO[C@]1(CN2CCN(C3COC3)CC2)/C=C/C[C@H](C)[C@@H](CCOC)S(=O)(=O)NC(=O)c2ccc3c(c2)N(C[C@@H]2CC[C@H]21)C[C@@]1(CCCc2cc(Cl)ccc21)CO3
output: 10.10

input: // pIC50 lookup, key: CO[C@@]1(CN2CCN3CCN(S(C)(=O)=O)C[C@@H]3C2)/C=C/C[C@H](C)[C@@H](C)S(=O)(=O)NC(=O)c2ccc3c(c2)N(C[C@@H]2CC[C@H]21)C[C@@]1(CCCc2cc(Cl)ccc21)CO3 (stereo in doubt)
output: 9.70

====

Would you kindly list pIC50 for each of these molecules?
- target_entity: recombinant human Mcl-1 (Mcl-1/Bim interaction) (Homo sapiens (Human))
- measurement_protocol: biochemical
- Type: binding
- condition_label: cell free Mcl-1:Bim TR-FRET; read-out: Mcl-1 HTRF IC50
Give only the number. pIC50 is defined as minus log10 of concentration in molar units.

input: Which pIC50 value is on record for CCO[C@]1(CN2CCN(C(C)C)CC2)/C=C/C[C@H](C)[C@@H](CCOC)S(=O)(=O)NC(=O)c2ccc3c(c2)N(C[C@@H]2CC[C@H]21)C[C@@]1(CCCc2cc(Cl)ccc21)CO3 ?
output: 10.19

input: What measured pIC50 goes with CO[C@]1(CN2CCN3CCS(=O)(=O)C[C@@H]3C2)/C=C/C[C@H](C)[C@@H](C)S(=O)(=O)NC(=O)c2ccc3c(c2)N(C[C@@H]2CC[C@H]21)C[C@@]1(CCCc2cc(Cl)ccc21)CO3 (stereo in doubt) [Example 215] ?
output: 9.83

input: Need pIC50 of C[C@@H]1[C@@H](C)C/C=C/[C@](O)(CN2CCN3CCOC[C@@H]3C2)[C@@H]2CC[C@H]2CN2C[C@@]3(CCCc4cc(Cl)ccc43)COc3ccc(cc32)C(=O)NS1(=O)=O , thanks.
output: 9.62

input: // lookup pIC50 for CO[C@@]1(CN2CCN3CCOC[C@@H]3C2)/C=C/C[C@H](C)[C@@H](CCCl)S(=O)(=O)NC(=O)c2ccc3c(c2)N(C[C@@H]2CC[C@H]21)C[C@@]1(CCCc2cc(Cl)ccc21)CO3
output: 9.61

input: // query pIC50 value for entry CO[C@@]1(CN2CCN3CCC[C@@H]3C2)/C=C/C[C@H](C)[C@@H](C)S(=O)(=O)NC(=O)c2ccc3c(c2)N(C[C@@H]2CC[C@H]21)C[C@@]1(CCCc2cc(Cl)ccc21)CO3 (stereo in doubt)
output: 8.81

====

- target_entity: recombinant human Mcl-1 (Mcl-1/Bim interaction) (Homo sapiens (Human))
- measurement_protocol: biochemical
- Type: binding
- condition_label: cell free Mcl-1:Bim TR-FRET; read-out: Mcl-1 HTRF IC50
measured_attribute: IC50 (pM)
The answer is to be given in pM; state only the numeric part.

input: // IC50 lookup, key: CO[C@@]1(CN2CCN(CC(=O)O)CC2)/C=C/C[C@H](C)[C@@H](C)S(=O)(=O)NC(=O)c2ccc3c(c2)N(C[C@@H]2CC[C@H]21)C[C@@]1(CCCc2cc(Cl)ccc21)CO3 [Example 270]
output: 35

input: Quick check: IC50 of CC(C)CO[C@@]1(CN2CCN(C3COC3)CC2)/C=C/C[C@H](C)[C@@H](C)S(=O)(=O)NC(=O)c2ccc3c(c2)N(C[C@@H]2CC[C@H]21)C[C@@]1(CCCc2cc(Cl)ccc21)CO3 [Example 348] ?
output: 2620

input: Name the reported IC50 value associated with the compound CCO[C@]1(CN2CCN(C3COC3)CC2)/C=C/C[C@H](C)[C@@H](C)S(=O)(=O)NC(=O)c2ccc3c(c2)N(C[C@@H]2CC[C@H]21)C[C@@]1(CCCc2cc(Cl)ccc21)CO3 [Example 2]
output: 109

input: For CO[C@@]1(CN2CCN3CCN(C(C)=O)C[C@@H]3C2)/C=C/C[C@H](C)[C@@H](C)S(=O)(=O)NC(=O)c2ccc3c(c2)N(C[C@@H]2CC[C@H]21)C[C@@]1(CCCc2cc(Cl)ccc21)CO3 (single isomer, unassigned) [Example 226] , what is its reported IC50?
output: 57

input: What does the record list as IC50 for CCO[C@]1(CN2CCN3CCCC[C@@H]3C2)/C=C/C[C@H](C)[C@@H](CCOC)S(=O)(=O)NC(=O)c2ccc3c(c2)N(C[C@@H]2CC[C@H]21)C[C@@]1(CCCc2cc(Cl)ccc21)CO3 [Example 15] ?
output: 119

input: Give the measured IC50 of COCCO[C@@]1(CN2CCN3CCCC[C@@H]3C2)/C=C/C[C@H](C)[C@@H](C)S(=O)(=O)NC(=O)c2ccc3c(c2)N(C[C@@H]2CC[C@H]21)C[C@@]1(CCCc2cc(Cl)ccc21)CO3 [Example 151] .
output: 843

input: Data request, read-out IC50, for CO[C@@]1(CN2CCN3CCCC[C@@H]3C2)/C=C/C[C@H](C)[C@@H](Cc2ccccc2)S(=O)(=O)NC(=O)c2ccc3c(c2)N(C[C@@H]2CC[C@H]21)C[C@@]1(CCCc2cc(Cl)ccc21)CO3 (single isomer, unassigned) [Example 104]
output: 1120

====

- target_entity: recombinant human Mcl-1 (Mcl-1/Bim interaction) (Homo sapiens (Human), UniProt Q07820)
- Sequence (Q07820 171-327): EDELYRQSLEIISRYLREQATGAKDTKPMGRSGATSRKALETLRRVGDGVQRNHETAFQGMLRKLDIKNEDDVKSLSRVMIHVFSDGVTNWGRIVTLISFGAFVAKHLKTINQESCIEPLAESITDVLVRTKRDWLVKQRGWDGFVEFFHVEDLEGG
- measurement_protocol: biochemical
- Type: binding
- condition_label: cell free Mcl-1:Bim TR-FRET; read-out: Mcl-1 HTRF IC50
Exercise: for every item that follows, state its recorded pIC50.
Reminder that pIC50 means the negative base-10 logarithm of the concentration expressed in mol/L.

input: Fill in the blank: the reported pIC50 of C[C@@H]1[C@@H](C)C/C=C/[C@@](O)(CN2CCOC[C@@H]2Cn2ccnc2)[C@@H]2CC[C@H]2CN2C[C@@]3(CCCc4cc(Cl)ccc43)COc3ccc(cc32)C(=O)NS1(=O)=O is ____.
output: 9.73

input: Consider the compound shown here: C[C@@H]1[C@@H](C)C/C=C/C(O)(CN2CCN3CCCC[C@@H]3C2)[C@@H]2CC[C@H]2CN2C[C@@]3(CCCc4cc(Cl)ccc43)COc3ccc(cc32)C(=O)NS1(=O)=O (single isomer, unassigned) [Example 242] What is its recorded pIC50?
output: 9.60

input: What pIC50 value was documented for this compound, CO[C@]1(CN2CCN3CCCC[C@@H]3C2)/C=C/C[C@H](C)[C@@H](CCN(C)C)S(=O)(=O)NC(=O)c2ccc3c(c2)N(C[C@@H]2CC[C@H]21)C[C@@]1(CCCc2cc(Cl)ccc21)CO3 ?
output: 9.70

input: I have this compound here, CO[C@@]1(CN2CCN3CCN(C)CC3C2)/C=C/C[C@H](C)[C@@H](C)S(=O)(=O)NC(=O)c2ccc3c(c2)N(C[C@@H]2CC[C@H]21)C[C@@]1(CCCc2cc(Cl)ccc21)CO3 (single isomer, unassigned) , and I need its recorded pIC50.
output: 9.31

input: Which pIC50 value is on record for COCC[C@@H]1[C@@H](C)C/C=C/[C@](CN2CCN3CCOC[C@@H]3C2)(OC)[C@@H]2CC[C@H]2CN2C[C@@]3(CCCc4cc(Cl)ccc43)COc3ccc(nc32)C(=O)NS1(=O)=O ?
output: 10.09
